Maximum Inhibition (%) of 1 nM hFGF21 values, listed per item
- target-or-system: human KLB and human FGFR1c co-expressed on HEK293/hKLB/hFGFR1c/SRE-luc cells (human, UniProt Q86Z14 1-1044; P11362 22-822)
- Sequence (Q86Z14 whole entry, chain 1 of 2): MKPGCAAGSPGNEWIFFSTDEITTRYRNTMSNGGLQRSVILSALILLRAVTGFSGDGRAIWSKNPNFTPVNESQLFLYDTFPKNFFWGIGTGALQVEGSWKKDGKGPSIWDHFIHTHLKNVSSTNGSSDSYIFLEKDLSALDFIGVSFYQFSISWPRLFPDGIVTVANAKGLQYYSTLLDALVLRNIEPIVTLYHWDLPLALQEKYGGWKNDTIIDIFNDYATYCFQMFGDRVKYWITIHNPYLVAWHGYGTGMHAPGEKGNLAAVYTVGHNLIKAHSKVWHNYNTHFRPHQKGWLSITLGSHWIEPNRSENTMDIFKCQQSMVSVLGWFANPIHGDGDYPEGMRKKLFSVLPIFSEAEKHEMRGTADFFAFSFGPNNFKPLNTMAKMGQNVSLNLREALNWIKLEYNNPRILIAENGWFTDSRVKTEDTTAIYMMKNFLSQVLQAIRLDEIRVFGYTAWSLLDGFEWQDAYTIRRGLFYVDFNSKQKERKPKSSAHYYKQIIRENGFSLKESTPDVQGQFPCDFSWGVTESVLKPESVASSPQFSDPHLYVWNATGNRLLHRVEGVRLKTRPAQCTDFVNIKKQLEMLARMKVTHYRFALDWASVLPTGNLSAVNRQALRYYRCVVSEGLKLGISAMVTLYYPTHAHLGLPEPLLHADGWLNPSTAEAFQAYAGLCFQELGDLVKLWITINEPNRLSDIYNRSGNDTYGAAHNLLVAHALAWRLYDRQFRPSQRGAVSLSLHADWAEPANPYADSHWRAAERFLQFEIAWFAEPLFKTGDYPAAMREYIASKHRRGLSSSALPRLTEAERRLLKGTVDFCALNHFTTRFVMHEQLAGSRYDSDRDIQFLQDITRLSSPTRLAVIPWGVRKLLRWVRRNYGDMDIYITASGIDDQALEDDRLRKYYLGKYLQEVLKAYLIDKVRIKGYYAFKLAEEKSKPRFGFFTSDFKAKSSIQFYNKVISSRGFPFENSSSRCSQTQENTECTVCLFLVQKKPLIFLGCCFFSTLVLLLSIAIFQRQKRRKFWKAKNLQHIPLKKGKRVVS
- Sequence (P11362 other isoform, or with tags, fused parts or gaps limits assumed, chain 2 of 2): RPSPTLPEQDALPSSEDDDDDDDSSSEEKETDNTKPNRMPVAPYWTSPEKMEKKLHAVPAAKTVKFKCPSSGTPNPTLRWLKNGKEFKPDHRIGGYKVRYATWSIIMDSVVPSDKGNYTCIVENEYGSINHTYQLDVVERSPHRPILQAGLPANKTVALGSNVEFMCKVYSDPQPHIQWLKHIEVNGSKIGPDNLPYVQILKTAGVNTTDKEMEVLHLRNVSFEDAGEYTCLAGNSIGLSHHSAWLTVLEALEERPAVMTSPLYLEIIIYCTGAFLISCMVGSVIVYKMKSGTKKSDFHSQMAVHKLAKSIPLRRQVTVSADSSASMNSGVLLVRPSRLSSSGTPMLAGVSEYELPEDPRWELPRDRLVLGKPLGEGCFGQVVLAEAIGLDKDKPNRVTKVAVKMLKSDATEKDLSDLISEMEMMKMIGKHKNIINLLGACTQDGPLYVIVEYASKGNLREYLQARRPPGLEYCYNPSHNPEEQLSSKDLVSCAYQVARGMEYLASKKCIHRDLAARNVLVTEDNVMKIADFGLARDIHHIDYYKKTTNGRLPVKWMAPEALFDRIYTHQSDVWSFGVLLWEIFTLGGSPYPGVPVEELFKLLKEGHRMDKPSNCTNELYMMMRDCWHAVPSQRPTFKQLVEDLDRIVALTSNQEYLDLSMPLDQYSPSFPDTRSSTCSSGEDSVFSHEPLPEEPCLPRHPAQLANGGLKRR
- assay-explanation: cell-based or functional assay
Express the result in % but write the number alone.

Some binders with known Maximum Inhibition (%) of 1 nM hFGF21 results, for comparison:
{"columns": ["binder", "experimental-endpoint", "unit-of-measurement", "observed-result"],
 "data": [
  ["H4H8871P (antibody, V domains shown, human IgG4 Fc (H4H prefix)) VH: QVQLQESGPGLVKPSETLSLTCTVSGASISSYYWSWIRQPPGKGLEWIGYIYSSGIIKYNPSLKSRVTISADTSKNQFSLKLSSVTAADTAVYYCARHGIFGVMEYFQRWGQGTLVTVSS VL: DIQMTQSPSSLSASIGDRVTITCQASQDIGNFLNWYHQKPGKAPTLLIYDASNMETGVPSRFRGSGSGTYFTFIISSLQPEDVATYYCQQYDNLPLTFGGGTKVEIK", "Maximum Inhibition (%) of 1 nM hFGF21", "%", 92],
  ["H1H8898P (antibody, V domains shown, H1H Fc prefix (human Fc)) VH: QVQLVESGGGLVKPGGSLRLSCAASGFIFSDYYMSWIRQAPGKGLDWISYISPSGSTIYYADSVKGRFTISRDNAKNSLYLQMNSLRADDTAVYYCARTGIQLWSVYFDYWGQGTLVTVSS VL: EIVMTQSPATLSVSPGERATLSCRASQSVGSNLAWYQQKPGQAPRLLIYGASTRANGIPARFSGSGSGTEFTLTISGLQSEDFAVYYCQQYNNWPTFGQGTKLEIK", "Maximum Inhibition (%) of 1 nM hFGF21", "%", 97],
  ["H2aM8093N (antibody, V domains shown, mouse IgG2 Fc (H2aM prefix)) VH: QVQLVQSGAEVKRPGSSVKVSCKASGDTFSTYAISWVRQAPGQGLEWMGGIIPVFGTTNYAQKFQDRVTITTDESTRTAYMELSSLRSEDTAVYYCAGIAGPDYWGQGTLVTVSS VL: DIQMTQSPSSLSASVGDRVTITCRASQGIRNYLAWFQQKPGKAPKSLIYLATSLQSGVPSKFSGSGSGTDFTLTISSLQPEDFATYYCQQYYSYPWTFGQGTKVEIK", "Maximum Inhibition (%) of 1 nM hFGF21", "%", 65],
  ["H2aM8098N (antibody, V domains shown, mouse IgG2 Fc (H2aM prefix)) VH: QLQLQESGPGLVKPSETLSLTCTVSGGSISSSNYYWDWIRQTPEKGLEWIGSIHYSGTSYYNPSLKSRVTISVDTSKNQFSLKLRSVTAADAAVYYCARQTSVYWYFDIWGHGTLVTVST VL: EIVLTQSPGTLSLSPGEGATLSCRASQSVRNNYLAWYQQKPGQAPRLLIYGASSRAIGIPDRFSGSGSGTDFTLTISRLEPKDFVVYYCQQYGGSLFTFGPGTKVDIK", "Maximum Inhibition (%) of 1 nM hFGF21", "%", 62]
]}

Query string: For the binder shown here, H4H8881P (antibody, V domains shown, human IgG4 Fc (H4H prefix)) VH: QVQLVQSGAEVKKPGASVKVSCKASGYTFTSYVIHWVRQAPGQRLEWMGWSNAANGDTKYSQEFQDRVTFTRDTSASTAYMELSSLRSEDMAVYYCARWNWNYGAFDIWGQGTMVTVSS VL: DIQMTQSPSSLSASVGDRVTITCQASQDINNYLHWYQQKSGKAPNLLIYDASILETGVPSRFSGSGSGTDFTFTISSLQPEDIATYYCQQYDNLPYTFGQGTKLEIK , give the reported Maximum Inhibition (%) of 1 nM hFGF21.
Result string: 77
